Exercise: for every item that follows, state its recorded stoichiometry N.
biological target: the molecule itself; assay: native gel or EMSA; NativePAGE Bis-Tris gel; MBP-ALAD proteins expressed along with the isc operon in E. coli and purified anaerobically
Could you respond with only the numeric value?

Please fill in: stoichiometry N reported for MBP-ALAD C119A (enzyme, human, UniProt P13716 1-330, looked up, aminolevulinic acid dehydratase (ALAD), human; source: E. coli BL21(DE3), expressed along with the isc operon, purified anaerobically (amylose resin); not shown: MBP, N-terminal, kept) MQPQSVLHSGYFHPLLRAWQTATTTLNASNLIYPIFVTDVPDDIQPITSLPGVARYGVKRLEEMLRPLVEEGLRCVLIFGVPSRVPKDERGSAADSEESPAIEAIHLLRKTFPNLLVAADVCLCPYTSHGHCGLLSENGAFRAEESRQRLAEVALAYAKAGCQVVAPSDMMDGRVEAIKEALMAHGLGNRVSVMSYSAKFASCFYGPFRDAAKSSPAFGDRRCYQLPPGARGLALRAVDRDVREGADMLMVKPGMPYLDIVREVKDKHPDLPLAVYHVSGEFAMLWHGAQAGAFDLKAAVLEAMTAFRRAGADIIITYYTPQLLQWLKEE = 6

Query MBP-ALAD C162A (enzyme, human, UniProt P13716 1-330, looked up, aminolevulinic acid dehydratase (ALAD), human; source: E. coli BL21(DE3), expressed along with the isc operon, purified anaerobically (amylose resin); not shown: MBP, N-terminal, kept) MQPQSVLHSGYFHPLLRAWQTATTTLNASNLIYPIFVTDVPDDIQPITSLPGVARYGVKRLEEMLRPLVEEGLRCVLIFGVPSRVPKDERGSAADSEESPAIEAIHLLRKTFPNLLVACDVCLCPYTSHGHCGLLSENGAFRAEESRQRLAEVALAYAKAGAQVVAPSDMMDGRVEAIKEALMAHGLGNRVSVMSYSAKFASCFYGPFRDAAKSSPAFGDRRCYQLPPGARGLALRAVDRDVREGADMLMVKPGMPYLDIVREVKDKHPDLPLAVYHVSGEFAMLWHGAQAGAFDLKAAVLEAMTAFRRAGADIIITYYTPQLLQWLKEE yields stoichiometry N of 6
